# Test system: hLiMTs
# ASSAY_INFO: Combined HCI (HCS) and cellular ATP 3D assay in hLiMTs
# TEST_SETTINGS: hLiMTs; all endpoints; Cmax min used
READOUT_NAME: hLiMTs Cmax min All

MOLECULE	REPORTED_MEASUREMENT
Cc1cc2c(cc1CC(=O)c1sccc1S(=O)(=O)Nc1onc(C)c1Cl)OCO2	+ve
C[N+](C)(C)CC(=O)O [betaine, reference compound]	-ve
CC(C)(C)NCC(O)COc1cccc2c1CC(O)C(O)C2 (centres unmarked)	-ve
O=C1CN(/N=C/c2ccc(-c3ccc([N+](=O)[O-])cc3)o2)C(O)=N1	-ve

API: the following record is the query input.
Query: Given the molecule N[C@@H]1[C@H]2CN(c3nc4c(cc3F)c(=O)c(C(=O)O)cn4-c3ccc(F)cc3F)C[C@@H]12 , what is its reported hLiMTs Cmax min All?
Result: +ve

---

# Tested on: HepaRG spheroids
# ASSAY_INFO: Combined HCI (HCS) and cellular ATP 3D assay in HepaRG spheroids
# TEST_SETTINGS: HepaRG; all endpoints; Cmax min used
READOUT_NAME: HepaRG Cmax min All

For orientation, consider the following solved cases.
COMPOUND	HepaRG Cmax min All
CS(=O)(=O)CCNCc1ccc(-c2ccc3ncnc(Nc4ccc(OCc5cccc(F)c5)c(Cl)c4)c3c2)o1 [lapatinib]	+ve
C1CCC(C(CC2CCCCN2)C2CCCCC2)CC1 (stereo not shown) [perhexiline]	+ve
[H]/N=C(/N)N[C@H]1[C@H](O)[C@@H](O)[C@H](O[C@@H]2O[C@@H](C)[C@](O)(C=O)[C@H]2O[C@@H]2O[C@@H](CO)[C@H](O)[C@@H](O)[C@@H]2NC)[C@@H](N/C(N)=N\[H])[C@@H]1O [streptomycin, reference compound]	-ve
Cc1c(C)c2c(c(C)c1O)CCC(C)(COc1ccc(CC3SC(=O)NC3=O)cc1)O2 (stereo not shown) [troglitazone, reference compound]	+ve
CN(C)CCCN1c2ccccc2Sc2ccc(Cl)cc21 [chlorpromazine, reference compound]	+ve
O=C1CN(/N=C/c2ccc([N+](=O)[O-])o2)C(=O)N1 [nitrofurantoin, reference compound]	+ve

Query: Fill in the recorded HepaRG Cmax min All for this compound, with HepaRG spheroids as test system: CC(C)(C)NCC(O)COc1cccc2c1CC(O)C(O)C2 (stereo not shown) [nadolol]
Result: -ve

Query: Param readout = HepaRG Cmax min All; param system = HepaRG spheroids; param query = CC/C(=C(\c1ccccc1)c1ccc(OCCN(C)C)cc1)c1ccccc1 [tamoxifen] ; response: value
Result: +ve

Query: Param readout= HepaRG Cmax min All; system= HepaRG spheroids; entry= CCOC(=O)c1ncn2c1CN(C)C(=O)c1cc(F)ccc1-2 [flumazenil, reference compound] ; returns value.
Result: -ve

Query: # returns recorded HepaRG Cmax min All (system: HepaRG spheroids) for Cc1cc2c(cc1CC(=O)c1sccc1S(=O)(=O)Nc1onc(C)c1Cl)OCO2 [sitaxsentan]
Result: +ve

Query: Recall the recorded HepaRG Cmax min All for CNC1(C)C2CCC(C2)C1(C)C (stereo not shown) [mecamylamine] with HepaRG spheroids and state it.
Result: -ve

Query: Kindly state the measured HepaRG Cmax min All obtained for CCc1nn(CCCN2CCN(c3cccc(Cl)c3)CC2)c(=O)n1CCOc1ccccc1 [nefazodone, reference compound] with HepaRG spheroids.
Result: +ve

Query: Return HepaRG Cmax min All measured with HepaRG spheroids given this compound: CN(C)C(=O)Oc1cccc([N+](C)(C)C)c1 [neostigmine]
Result: -ve

Query: Any idea what HepaRG Cmax min All came out for CN(Cc1cnc2nc(N)nc(N)c2n1)c1ccc(C(=O)N[C@@H](CCC(=O)O)C(=O)O)cc1 [methotrexate, reference compound] on HepaRG spheroids?
Result: +ve

Query: # get_value(readout= HepaRG Cmax min All, system= HepaRG spheroids) for COc1ccccc1Oc1c(NS(=O)(=O)c2ccc(C(C)(C)C)cc2)nc(-c2ncccn2)nc1OCCO [bosentan]
Result: +ve

Query: Could you share what HepaRG Cmax min All was measured for CC(=O)N1CCN(c2ccc(OCC3COC(Cn4ccnc4)(c4ccc(Cl)cc4Cl)O3)cc2)CC1 (stereo not shown) [ketoconazole, reference compound] , tested on HepaRG spheroids?
Result: +ve
